studySystem: T1, Fl-ASPP2 1089–1097 (fluorescein-labelled ASPP2 n-src loop peptide)
T1 construct: ASPP2 n-src loop of the SH3 domain, residues 1089-1097; also called Fl-ASPP2 n-src peptide; Fl-n-src peptide; source: synthetic peptide
T1 peptide: fluorescein-REDEDEIEW
assayRemarks: fluorescence polarisation; fluorescence anisotropy; p53CD or ASPP2 722–737 titrated into 100 nM Fl-ASPP2 1089–1097 in the cuvette; 10°C; 50 mM Hepes pH 7.0, 10 mM NaCl, 10 mM βME; 1:1 binding model
conditions: both partners purified
Where no end group is shown, it is not given here.
measurementKind: Kd (nM)
Enter your answer as a number in nM; do not include the unit.

For this binder ( WRKKLSNAPRPLKKRSS (Trp added at the N terminus of the peptide for UV spectroscopy; A natural stretch with one added N-terminal Trp; source: synthetic peptide) [ASPP2 722–737 (ASPP2 Pro peptide, non-labelled)] ), measured Kd is 500
